Origin of measurements: ChEMBL document CHEMBL5137055

Reported values of tissue uptake at 2 min for individual entries
Measurement Description: Drug uptake in brain of Tg mouse at 2 mins post injection
Format: ADME, tissue-based
Experimental Parameters: read-out: Drug uptake
A bare number is not enough; add the unit after it.

{"Compound": "O=C1NC(=S)NC(=O)C1=C/C=C/C=C/C1C(=O)NC(=S)NC1O (configuration not stated)", "tissue uptake at 2 min": "0.04 %ID/g"}

Q: # input compound: CN1C(=O)C(=C/C=C/C=C/c2ccc(N(C)C)cc2)C(=O)N(C)C1=O ; wanted: its tissue uptake at 2 min
A: 0.83 %ID/g

---

Assay Target: Amyloid-beta precursor protein (Homo sapiens)
Sequence (P05067 whole entry): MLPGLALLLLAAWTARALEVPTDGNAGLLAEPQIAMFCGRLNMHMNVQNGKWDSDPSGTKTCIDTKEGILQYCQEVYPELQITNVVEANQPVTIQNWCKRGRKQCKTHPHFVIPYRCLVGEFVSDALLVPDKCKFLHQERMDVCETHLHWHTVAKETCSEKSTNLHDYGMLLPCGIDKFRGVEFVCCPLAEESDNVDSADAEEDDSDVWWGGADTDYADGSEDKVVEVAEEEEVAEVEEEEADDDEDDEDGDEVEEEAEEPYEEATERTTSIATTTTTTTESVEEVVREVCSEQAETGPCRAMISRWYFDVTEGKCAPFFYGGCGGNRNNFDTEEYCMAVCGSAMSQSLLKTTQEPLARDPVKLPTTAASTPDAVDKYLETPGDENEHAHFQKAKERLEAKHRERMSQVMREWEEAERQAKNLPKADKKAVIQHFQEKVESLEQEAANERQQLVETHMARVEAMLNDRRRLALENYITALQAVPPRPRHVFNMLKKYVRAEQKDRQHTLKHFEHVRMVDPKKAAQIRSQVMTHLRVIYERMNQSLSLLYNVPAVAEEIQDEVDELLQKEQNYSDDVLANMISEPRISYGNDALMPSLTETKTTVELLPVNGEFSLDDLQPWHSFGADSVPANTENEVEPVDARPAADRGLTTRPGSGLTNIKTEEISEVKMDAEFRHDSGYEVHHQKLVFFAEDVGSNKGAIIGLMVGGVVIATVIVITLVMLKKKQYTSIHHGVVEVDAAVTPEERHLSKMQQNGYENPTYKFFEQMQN
Measurement Description: Binding affinity to amyloid beta (1 to 42) (unknown origin) fibrils
Note to self: use Y only for Kd readings below 20 µM; a reading exactly at 20 µM still gets N.

{"Record Smiles": "CCCN(CCC)c1ccc(/C=C/c2cc[n+](OCC)c3ccccc23)cc1", "Cat": "Y"}
{"Record Smiles": "CCCCN(CCCC)c1ccc2cc(/C=C/c3c[n+](C)cc4ccccc34)ccc2c1", "Cat": "N"}

Q: Kd under 20 µM? Item: CCCCN(CCCC)c1ccc2cc(/C=C/c3cc[n+](CCO)c4ccccc34)ccc2c1
A: N

Q: Kd under 20 µM? Item: COCCOCCn1c2ccccc2c2cc(/C=C/c3cc[n+](C)c4ccccc34)ccc21
A: Y

Q: Kd under 20 µM? Item: CCO[n+]1ccc(/C=C/c2ccc(N(C)C)cc2)c2ccccc21
A: Y

Q: Kd under 20 µM? Item: CN(C)c1ccc2nc(C=C(C#N)C#N)sc2c1
A: Y

Q: Kd under 20 µM? Item: CN(C)c1ccc2nc(/C=C/c3ccc(C=C(C#N)C#N)cc3)sc2c1
A: Y

Q: Kd under 20 µM? Item: CCCCN(CCCC)c1ccc2cc(/C=C/c3cc[n+](C)c4ccccc34)ccc2c1
A: N

Q: Kd under 20 µM? Item: C[n+]1ccc(/C=C/c2ccc(N(c3ccccc3)c3ccccc3)cc2)c2ccccc21
A: Y
